# Experimental details: In vivo pharmacokinetics after intragastric administration in mice
# Condition description: male, ICR, mouse, po, single intragastric administration, 20 mg/kg, plasma
# Cmax values compiled below
Reported metric: Cmax (ng/mL)

> print(dat)
                                   molecule  assay.value
1  Cc1nc(NC2CCN(C(=O)O[C@H]3CCN(C(=O)/C=C/CN(C)C)C3)CC2)c2ncc(C(C)C)n2n1 [SZ-015268]         1540
2  Cc1nc(NC2CCN(C(=O)O[C@H]3CCN(C(=O)/C=C/CN(C)C)C3)CC2)n2ncc(C(C)C)c2n1 [SZ-015256]         3380

---

# Tested on: OVCAR3 cells
# Experimental details: Inhibition of cell proliferation, CellTiter-Glo, OVCAR3
# Assay type: cell-based
# Condition description: Homo sapiens, OVCAR-3, 72 h, Efficacy Example 2 (Table 2), 72 h incubation
Grouping by measured IC50 is done with the following cut points: low interval = under 60 nM, middle interval = from 60 nM up to 100 nM, high interval = 100 nM and over

> print(dat)
                                    molecule   measured.on   category.label
 1  CC(C)Nc1nc(NC2CCN(C(=O)O[C@H]3CCN(C(=O)/C=C/CN(C)C)C3)CC2)n2ncc(C(C)C)c2n1 [SZ-015330]  OVCAR3 cells     low interval
 2  CC(C)Nc1nc(NC2CCN(C(=O)O[C@H]3CCN(C(=O)/C=C/CN(C)C)C3)CC2)c2ncc(C(C)C)n2n1 [SZ-015328]  OVCAR3 cells    high interval
 3  Cc1nc(NC2CCN(C(=O)O[C@@H]3CCN(C(=O)/C=C/CN(C)C)C3)CC2)n2ncc(C(C)C)c2n1 [SZ-015282]  OVCAR3 cells  middle interval
 4  CC[C@H](CO)Nc1nc(NC2CCN(C(=O)O[C@H]3CCN(C(=O)/C=C/CN(C)C)C3)CC2)c2ncn(C(C)C)c2n1 [SZ-015295]  OVCAR3 cells  middle interval
 5  Cc1cc(NC2CCN(C(=O)O[C@H]3CCN(C(=O)/C=C/CN(C)C)C3)CC2)c2ncc(C(C)C)n2n1 [SZ-015273]  OVCAR3 cells     low interval
 6  Cc1cn2c(C(C)C)cnc2c(NC2CCN(C(=O)O[C@H]3CCN(C(=O)/C=C/CN(C)C)C3)CC2)n1 [SZ-015274]  OVCAR3 cells    high interval
 7  CC[C@H](CO)Nc1cc(NC2CCN(C(=O)O[C@H]3CCN(C(=O)/C=C/CN(C)C)C3)CC2)c2ncn(C(C)C)c2n1 [SZ-015306]  OVCAR3 cells    high interval
 8  CCn1cnc2c(NC3CCN(C(=O)O[C@H]4CCN(C(=O)/C=C/CN(C)C)C4)CC3)ccnc21 [SZ-015285]  OVCAR3 cells    high interval
 9  Cc1nc(NC2CCN(C(=O)O[C@H]3CCN(C(=O)/C=C/CN(C)C)C3)CC2)n2ncc(C(C)C)c2n1 [SZ-015256]  OVCAR3 cells  middle interval
10  CC(C)c1cnc2c(NC3CCN(C(=O)O[C@H]4CCN(C(=O)/C=C/CN(C)C)C4)CC3)nc(C3CC3)nn12 [SZ-015338]  OVCAR3 cells     low interval
11  CC(C)n1cnc2c(NC3CCN(C(=O)O[C@H]4CCN(C(=O)/C=C/CN(C)C)C4)CC3)nc(CO)nc21 [SZ-015297]  OVCAR3 cells    high interval
12  CC#CC(=O)N1CC[C@H](OC(=O)N2CCC(Nc3nc(C)nc4c(C(C)C)cnn34)CC2)C1 [SZ-015294]  OVCAR3 cells  middle interval

---

# IC50 values compiled below
# Test system: OVCAR3 cells
# Experimental details: Inhibition of cell proliferation, CellTiter-Glo, OVCAR3
# Assay type: cell-based
# Condition description: Homo sapiens, OVCAR-3, 72 h, Efficacy Example 2 (Table 2), 72 h incubation
Reported metric: IC50

> print(dat)
                                   compound   measured.on  assay.value
1  CC(C)c1cnn2c(NCc3ccccc3)cc(NC[C@H]3CCNC[C@@H]3O)nc12 [CT7001, reference compound]  OVCAR3 cells       467 nM
2  Cc1cc(NC2CCN(C(=O)O[C@H]3CCN(C(=O)/C=C/CN(C)C)C3)CC2)c2ncn(C(C)C)c2n1  OVCAR3 cells       138 nM
3  CC[C@H](CO)Nc1nc(NC2CCN(C(=O)O[C@H]3CCN(C(=O)/C=C/CN(C)C)C3)CC2)n2ncc(C(C)C)c2n1  OVCAR3 cells      33.2 nM
4  Cc1cc(NC2CCN(C(=O)OC3CN(C(=O)/C=C/CN(C)C)C3)CC2)c2ncn(C(C)C)c2n1  OVCAR3 cells       139 nM

---

# System: OVCAR3 cells
# Experimental details: Inhibition of cell proliferation, CellTiter-Glo, OVCAR3
# Assay type: cell-based
# Condition description: Homo sapiens, OVCAR-3, 72 h, Efficacy Example 2 (Table 2), 72 h incubation
pIC50: −log10 of the molar value.
Label 1 (yes) when pIC50 >= 7; otherwise 0 (no).

> print(dat)
                                     smiles  category.label
1  CC(C)c1cn2c(C(C)C)cnc2c(NC2CCN(C(=O)O[C@H]3CCN(C(=O)/C=C/CN(C)C)C3)CC2)n1          0 (no)
2  CC(C)n1cnc2c(NC3CCN(C(=O)O[C@H]4CCN(C(=O)/C=C/CN(C)C)C4)CC3)ccnc21          0 (no)
3  Cc1cc2c(ncn2C(C)C)c(NC2CCN(C(=O)O[C@H]3CCN(C(=O)/C=C/CN(C)C)C3)CC2)n1          0 (no)
4  CC(C)c1cnn2c(NC3CCN(C(=O)O[C@H]4CCN(C(=O)/C=C/CN(C)C)C4)CC3)nc(NC3CC3)nc12         1 (yes)
5  CC(C)Oc1nc(NC2CCN(C(=O)O[C@H]3CCN(C(=O)/C=C/CN(C)C)C3)CC2)n2ncc(C(C)C)c2n1         1 (yes)
6  CC[C@H](CO)Nc1cc(NC2CCN(C(=O)O[C@H]3CCN(C(=O)/C=C/CN(C)C)C3)CC2)c2ncc(C(C)C)n2n1          0 (no)

---

# Test system: HCC70 cells
# Experimental details: Inhibition of cell proliferation, CellTiter-Glo, HCC70
# Format: cell-based
# Condition description: Homo sapiens, HCC70, 72 h, Efficacy Example 2 (Table 2), 72 h incubation
Could you please mark 1 (yes) for values of IC50 below 100 nM and 0 (no) for values at or above it?

> print(dat)
                                    molecule  category.label
 1  CC(C)Nc1nc(NC2CCN(C(=O)O[C@H]3CCN(C(=O)/C=C/CN(C)C)C3)CC2)n2ncc(C(C)C)c2n1         1 (yes)
 2  CCn1cnc2c(NC3CCN(C(=O)O[C@H]4CCN(C(=O)/C=C/CN(C)C)C4)CC3)ccnc21          0 (no)
 3  Cc1cc(NC2CCN(C(=O)O[C@H]3CCN(C(=O)/C=C/CN(C)C)C3)CC2)c2ncn(C(C)C)c2n1          0 (no)
 4  Cc1cc(NC2CCN(C(=O)OC3CN(C(=O)/C=C/CN(C)C)C3)CC2)c2ncn(C(C)C)c2n1         1 (yes)
 5  CC(C)Oc1nc(NC2CCN(C(=O)O[C@H]3CCN(C(=O)/C=C/CN(C)C)C3)CC2)n2ncc(C(C)C)c2n1         1 (yes)
 6  Cc1nc(NC2CCN(C(=O)O[C@@H]3CCN(C(=O)/C=C/CN(C)C)C3)CC2)n2ncc(C(C)C)c2n1         1 (yes)
 7  Cc1cc(NC2CCN(C(=O)O[C@H]3CCN(C(=O)/C=C/CN(C)C)C3)CC2)c2ncc(C(C)C)n2n1          0 (no)
 8  CC[C@H](CO)Nc1nc(NC2CCN(C(=O)O[C@H]3CCN(C(=O)/C=C/CN(C)C)C3)CC2)n2ncc(C(C)C)c2n1         1 (yes)
 9  Cc1cn2c(C(C)C)cnc2c(NC2CCN(C(=O)O[C@H]3CCN(C(=O)/C=C/CN(C)C)C3)CC2)n1          0 (no)
10  Cc1nc(NC2CCN(C(=O)O[C@H]3CCN(C(=O)/C=C/CN(C)C)C3)CC2)c2ncc(C(C)C)n2n1         1 (yes)
11  CC(C)c1cnc2c(NC3CCN(C(=O)O[C@H]4CCN(C(=O)/C=C/CN(C)C)C4)CC3)nc(C3CC3)nn12         1 (yes)
12  CC(C)Nc1cc(NC2CCN(C(=O)O[C@H]3CCN(C(=O)/C=C/CN(C)C)C3)CC2)c2ncn(C(C)C)c2n1          0 (no)
13  CCc1nc(NC2CCN(C(=O)O[C@H]3CCN(C(=O)/C=C/CN(C)C)C3)CC2)c2ncn(C(C)C)c2n1         1 (yes)
14  COCCNc1cc(NC2CCN(C(=O)O[C@H]3CCN(C(=O)/C=C/CN(C)C)C3)CC2)c2ncn(C(C)C)c2n1         1 (yes)
15  CC(C)c1cnn2c(NCc3ccccc3)cc(NC[C@H]3CCNC[C@@H]3O)nc12 [CT7001, reference compound]          0 (no)
16  Cc1nc(NC2CCN(C(=O)OC3CN(C(=O)/C=C/CN(C)C)C3)CC2)c2ncn(C(C)C)c2n1         1 (yes)
17  CC(C)c1nc(NC2CCN(C(=O)O[C@H]3CCN(C(=O)/C=C/CN(C)C)C3)CC2)c2ncc(C(C)C)n2n1         1 (yes)
18  CC(C)c1cnn2c(NC3CCN(C(=O)O[C@H]4CCN(C(=O)/C=C/CN(C)C)C4)CC3)nc(NC3CC3)nc12         1 (yes)
19  CC#CC(=O)N1CC[C@H](OC(=O)N2CCC(Nc3nc(C)nc4c(C(C)C)cnn34)CC2)C1         1 (yes)
20  Cc1cc2c(ncn2C(C)C)c(NC2CCN(C(=O)O[C@H]3CCN(C(=O)/C=C/CN(C)C)C3)CC2)n1          0 (no)
21  CC(C)Oc1nc(NC2CCN(C(=O)O[C@H]3CCN(C(=O)/C=C/CN(C)C)C3)CC2)c2ncc(C(C)C)n2n1          0 (no)
22  CC[C@H](CO)Nc1cc(NC2CCN(C(=O)O[C@H]3CCN(C(=O)/C=C/CN(C)C)C3)CC2)c2ncc(C(C)C)n2n1          0 (no)
23  CC[C@H](CO)Nc1cc(NC2CCN(C(=O)O[C@H]3CCN(C(=O)/C=C/CN(C)C)C3)CC2)c2ncn(C(C)C)c2n1          0 (no)
24  CC[C@H](CO)Nc1nc(NC2CCN(C(=O)O[C@H]3CCN(C(=O)/C=C/CN(C)C)C3)CC2)c2ncn(C(C)C)c2n1          0 (no)
25  CC(C)c1cc(NC2CCN(C(=O)O[C@H]3CCN(C(=O)/C=C/CN(C)C)C3)CC2)c2ncn(C(C)C)c2n1         1 (yes)
26  CC(C)Nc1nc(NC2CCN(C(=O)O[C@H]3CCN(C(=O)/C=C/CN(C)C)C3)CC2)c2ncc(C(C)C)n2n1          0 (no)
27  CC#CC(=O)N1CC[C@H](OC(=O)N2CCC(Nc3cc(C)nc4c3ncn4C(C)C)CC2)C1          0 (no)
